Numbers sourced from paper PMC8593400.

- PROTOCOL_DETAILS: cytotoxicity, CellTiter-Glo 3D cell viability assay
- Format: cell-based
- PARTICULARS: African green monkey, Cell viability (%)
Reported values of viability at 48 h, 25 µM for individual entries
Output spec: scalar in %, unitless text.

COMPOUND: CC1(C)CCC2(C(=O)O)CCC3(C)C(=CCC4C5(C)CCC(OC6OC(C(=O)O)C(O)C(O)C6O)C(C)(C)C5CCC43C)C2C1 (centres unmarked)
viability at 48 h, 25 µM / %: 14.6

COMPOUND: C[C@@H](C1CC[C@@]2(C)C3=C(CC[C@]12C)[C@@]1(C)CC[C@H](O)C(C)(C)C1CC3)[C@H](O)/C=C/C(C)(C)OO (some centres unmarked)
viability at 48 h, 25 µM / %: 16.8

COMPOUND: C=C1CCC2(C(=O)O)C(O)CC3(C)C(=CCC4C5(C)CCC(OC6OC(C(=O)O)C(O)C(O)C6O)C(C)(C)C5CCC43C)C2C1 (centres unmarked) [Compound 4, Pfaffiaglycoside B]
viability at 48 h, 25 µM / %: 108

COMPOUND: CC(C)=CCC[C@@H](C=O)[C@H]1CC[C@@]2(C)C3=C(CC[C@]12C)[C@@]1(C)CC[C@H](O)C(C)(C)[C@@H]1CC3 [Compound 18, 3β-hydroxylanosta-8,24-dien-21-al]
viability at 48 h, 25 µM / %: 113

Looking for the measured viability at 48 h, 25 µM of `CC1(C)CC[C@]2(C(=O)O[C@@H]3O[C@H](CO)[C@@H](O)[C@H](O)[C@H]3O)CC[C@]3(C)C(=CC[C@@H]4[C@@]5(C)CC[C@H](O[C@@H]6O[C@H](C(=O)O)[C@@H](O)[C@H](O)[C@H]6O)C(C)(C)[C@@H]5CC[C@]43C)[C@@H]2C1` , can you help?
112
